Papp: recorded values
Assay: Permeability across human Caco2 cells
Assay type: ADME, cell-based
Conditions: Caco-2, read-out: permeability

Example entries and their recorded answers appear below.
SMILES TEXT	Papp
CCOC(=O)[C@@H]1Cc2cn(cn2)C/C=C/COc2ccc(Cl)c(c2)C(=O)N1	> 2 ×10⁻⁶ cm/s
Cl.O=C1N[C@H](C(=O)O)Cc2cn(cn2)C/C=C/COc2ccc(Cl)c1c2	0.1 ×10⁻⁶ cm/s

Now consider the entry below.
Requested read-out: Papp. Entry: "COC(=O)[C@@H]1Cc2cn(cn2)C/C=C/COc2ccc(Cl)c(c2)C(=O)N1"
> 2 ×10⁻⁶ cm/s

====

Biological target: Integrin alpha2/beta1 (Homo sapiens, UniProt P05556+P17301)
Sequence (P05556 whole entry): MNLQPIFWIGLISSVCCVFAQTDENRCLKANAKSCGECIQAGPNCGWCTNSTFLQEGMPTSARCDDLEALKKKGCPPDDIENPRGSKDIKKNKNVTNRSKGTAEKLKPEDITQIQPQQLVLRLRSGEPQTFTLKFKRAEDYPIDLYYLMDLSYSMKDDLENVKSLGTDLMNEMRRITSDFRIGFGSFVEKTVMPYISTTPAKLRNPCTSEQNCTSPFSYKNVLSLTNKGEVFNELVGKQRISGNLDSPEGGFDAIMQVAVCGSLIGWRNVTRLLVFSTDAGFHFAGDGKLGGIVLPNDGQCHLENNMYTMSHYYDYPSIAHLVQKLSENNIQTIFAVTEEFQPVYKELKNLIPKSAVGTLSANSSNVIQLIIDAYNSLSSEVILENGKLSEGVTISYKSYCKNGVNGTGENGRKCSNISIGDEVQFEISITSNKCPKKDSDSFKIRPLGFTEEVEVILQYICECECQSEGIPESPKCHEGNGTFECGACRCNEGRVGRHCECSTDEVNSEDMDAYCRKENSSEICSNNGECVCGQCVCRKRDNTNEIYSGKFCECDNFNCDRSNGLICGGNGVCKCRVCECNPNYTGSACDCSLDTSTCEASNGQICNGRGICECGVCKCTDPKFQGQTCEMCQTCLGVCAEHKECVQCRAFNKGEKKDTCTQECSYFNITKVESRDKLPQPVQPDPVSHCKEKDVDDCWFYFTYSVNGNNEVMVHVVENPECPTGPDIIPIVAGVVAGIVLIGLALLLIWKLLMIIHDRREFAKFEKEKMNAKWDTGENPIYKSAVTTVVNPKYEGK
Sequence (P17301 whole entry): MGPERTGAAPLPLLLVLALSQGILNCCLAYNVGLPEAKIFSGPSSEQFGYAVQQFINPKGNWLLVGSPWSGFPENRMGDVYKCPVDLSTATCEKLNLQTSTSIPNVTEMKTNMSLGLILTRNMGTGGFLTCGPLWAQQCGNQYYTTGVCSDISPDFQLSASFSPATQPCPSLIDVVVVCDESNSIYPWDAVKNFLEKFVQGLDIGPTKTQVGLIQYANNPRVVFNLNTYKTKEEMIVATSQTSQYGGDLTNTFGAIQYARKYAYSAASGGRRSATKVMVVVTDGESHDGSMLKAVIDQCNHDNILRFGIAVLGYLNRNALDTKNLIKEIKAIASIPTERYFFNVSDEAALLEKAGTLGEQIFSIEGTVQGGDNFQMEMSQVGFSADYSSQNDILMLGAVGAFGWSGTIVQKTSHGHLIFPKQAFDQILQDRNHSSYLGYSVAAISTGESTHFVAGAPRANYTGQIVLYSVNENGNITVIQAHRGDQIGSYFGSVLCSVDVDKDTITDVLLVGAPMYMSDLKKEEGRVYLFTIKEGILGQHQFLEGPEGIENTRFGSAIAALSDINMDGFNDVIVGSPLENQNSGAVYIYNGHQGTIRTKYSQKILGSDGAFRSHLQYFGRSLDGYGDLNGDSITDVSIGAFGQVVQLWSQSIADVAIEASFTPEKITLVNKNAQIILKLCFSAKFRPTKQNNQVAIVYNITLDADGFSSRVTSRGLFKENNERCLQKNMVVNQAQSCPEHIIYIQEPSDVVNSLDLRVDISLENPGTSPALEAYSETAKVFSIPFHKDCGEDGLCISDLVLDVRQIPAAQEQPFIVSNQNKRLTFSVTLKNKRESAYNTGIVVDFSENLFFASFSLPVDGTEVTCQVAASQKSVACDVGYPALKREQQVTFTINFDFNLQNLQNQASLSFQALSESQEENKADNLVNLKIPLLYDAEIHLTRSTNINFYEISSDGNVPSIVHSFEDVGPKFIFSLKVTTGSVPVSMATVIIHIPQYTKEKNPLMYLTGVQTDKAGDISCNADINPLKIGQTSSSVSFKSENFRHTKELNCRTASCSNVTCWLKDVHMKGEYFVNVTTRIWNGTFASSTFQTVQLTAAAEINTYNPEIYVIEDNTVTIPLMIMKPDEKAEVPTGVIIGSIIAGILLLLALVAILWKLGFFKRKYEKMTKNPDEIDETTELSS
Assay: Antagonist activity at recombinant integrin alpha2 beta1 receptor (unknown origin) assessed as inhibition of interaction with biotinylated collagen type-1 after 3 hrs by solid phase ELISA-type assay
pIC50: −log10 of the molar value.
RECORDED METRIC: pIC50

Example entries and their recorded answers appear below.
MOLECULE	pIC50
O=C1N[C@H](C(=O)O)Cc2cccc(c2)OC/C=C/COc2cccc(F)c21	< 6.00
O=C1NC(C(=O)O)CCc2cn(cn2)C/C=C/COc2ccc(Cl)c1c2 (racemic)	< 5.30

Requested read-out: pIC50. Entry: "COc1cccc2c1C(=O)N[C@H](C(=O)O)Cc1cccc(c1)OCCCCO2"
< 5.40

Requested read-out: pIC50. Entry: "O=C1N[C@H](C(=O)O)Cc2cccc(c2)OCCCCOc2cccc1c2"
< 5.00

Requested read-out: pIC50. Entry: "O=C1N[C@H](C(=O)O)Cc2cccc(n2)NC/C=C/COc2ccc(Cl)c1c2"
< 6.00

Requested read-out: pIC50. Entry: "O=C1N[C@H](C(=O)O)Cc2ncn(c2Cl)C/C=C/COc2ccc(Cl)c1c2"
< 5.40

====

Target: Integrin alpha2/beta1 (Homo sapiens, UniProt P05556+P17301)
Experiment: Antagonist activity at recombinant integrin alpha2 beta1 receptor (unknown origin) assessed as inhibition of interaction with biotinylated collagen type-1 after 3 hrs by solid phase ELISA-type assay
Type: protein-complex assay
pIC50: −log10 of the molar value.
RECORDED METRIC: pIC50

[A] O=C1N[C@H](C(=O)O)Cc2cn(cn2)C/C=C/COc2ccc(Cl)c1n2
[B] O=C1N[C@H](C(=O)O)Cc2cn(c3ccccc23)C/C=C/COc2ccc(Cl)c1c2
Between A and B , whose recorded pIC50 is greater? Which one? Tell me its label.
B
(B: 7.92, A: 7.44)

[P] O=C1N[C@H](C(=O)O)Cn2cc(nn2)C/C=C/COc2ccc(Cl)c1c2 (mixture of isomers)
[Q] Cc1cccc(Cl)c1C(=O)N[C@@H](Cc1ccc(NC(=O)c2c(Cl)cccc2Cl)cc1)C(=O)O
[R] Cc1ccc2cc1C(=O)N[C@H](C(=O)O)Cc1cccc(c1)OCCCCO2
Rank the items in ascending order with respect to pIC50. Please list each label once, in the requested order.
R, Q, P
(R: 6.13, Q: 6.67, P: 7.42)

====

Target: Integrin alpha2/beta1 (Homo sapiens, UniProt P05556+P17301)
Test: Antagonist activity at recombinant integrin alpha2 beta1 receptor (unknown origin) assessed as inhibition of interaction with biotinylated collagen type-1 after 3 hrs by solid phase ELISA-type assay
RECORDED METRIC: pIC50
// pIC50 is dimensionless: -log10 of concentration (M)

SMILES TEXT	pIC50
O=C1N[C@H](C(=O)O)Cc2cccc(c2)OC/C=C/COc2ccc1c(Cl)c2	6.79
O=C1N[C@H](C(=O)O)Cc2cn(nn2)CCCCOc2ccc(Cl)c1c2	6.30
O=C1N[C@H](C(=O)O)Cc2ccc(nc2)OC/C=C/COc2ccc(Cl)c1c2	6.87
O=C1N[C@H](C(=O)O)Cc2ccc(nc2)OCCCCOc2ccc(Cl)c1c2	6.10

Requested read-out: pIC50. Entry: "O=C1N[C@H](C(=O)O)Cc2cccc(c2)OCCCCOc2ccc1c(Cl)c2"
6.94

Requested read-out: pIC50. Entry: "O=C1N[C@H](C(=O)O)Cc2ccc(cc2)OCCCCOc2cccc(Cl)c21"
6.97
